molecular target: PIM2 (human) (UniProt Q9P1W9); assay: radiometric filter-binding kinase assay, Kinase HotSpot; details: compound 0.5 µM; ATP 10 µM
Sequence (Q9P1W9 whole entry, looked up): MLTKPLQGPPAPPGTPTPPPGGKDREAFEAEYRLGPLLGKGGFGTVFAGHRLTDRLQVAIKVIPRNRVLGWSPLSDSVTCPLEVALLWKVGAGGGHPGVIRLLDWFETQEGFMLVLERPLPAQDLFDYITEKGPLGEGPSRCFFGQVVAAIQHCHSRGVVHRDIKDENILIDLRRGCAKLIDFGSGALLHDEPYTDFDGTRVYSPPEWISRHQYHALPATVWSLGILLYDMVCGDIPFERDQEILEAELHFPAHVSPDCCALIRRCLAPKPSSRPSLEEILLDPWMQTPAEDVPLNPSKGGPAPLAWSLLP
Listed here are molecules together with their documented residual activity.

[
  {
    "Structure": "CC(C)N(CCC(=O)c1ccc2ccccc2c1)Cc1ccccc1",
    "residual activity, %": 104
  },
  {
    "Structure": "CCN(CC)CCNC(=O)c1c(C)[nH]c(/C=C2\\C(=O)Nc3ccc(Cl)cc32)c1C",
    "residual activity, %": 101
  },
  {
    "Structure": "CCCC(=O)Oc1ccc2[nH]c(C(=O)c3cc4ccccc4[nH]3)cc2c1",
    "residual activity, %": 101
  },
  {
    "Structure": "CCOC(=O)c1c(C)[nH]c(/C=C2\\C(=O)Nc3ccccc32)c1C",
    "residual activity, %": 97.7
  },
  {
    "Structure": "O=C1NC(=O)C(c2cn(CCCn3ccnc3)c3ccccc23)=C1Nc1ccccc1",
    "residual activity, %": 102
  },
  {
    "Structure": "COc1cc2ncnc(Nc3cccc(Cl)c3)c2cc1OC",
    "residual activity, %": 104
  },
  {
    "Structure": "Oc1cccc(-c2nc(N3CCOCC3)c3oc4ncccc4c3n2)c1",
    "residual activity, %": 96.9
  },
  {
    "Structure": "O=C1NC(=O)/C(=C/c2ccc3c(c2)OC(F)(F)O3)S1",
    "residual activity, %": 91.9
  },
  {
    "Structure": "Nc1ccc2ncnc(NCCc3ccc(Oc4ccccc4)cc3)c2c1",
    "residual activity, %": 119
  },
  {
    "Structure": "CC(=O)c1ccc(N2CCOCC2)cc1O",
    "residual activity, %": 117
  },
  {
    "Structure": "c1ccc(-c2n[nH]c3c2oc2ccccc23)cc1",
    "residual activity, %": 104
  },
  {
    "Structure": "CCN(CC)CCNC(=O)c1c(C)[nH]c(/C=C2\\C(=O)Nc3ccc(F)cc32)c1C",
    "residual activity, %": 97.2
  },
  {
    "Structure": "Nc1ncnc2[nH]nc(Nc3ccc(F)cc3)c12",
    "residual activity, %": 89.3
  },
  {
    "Structure": "N#C/C(=C(/N)Sc1ccc(N)cc1)c1ccccc1C(F)(F)F",
    "residual activity, %": 103
  },
  {
    "Structure": "O=C(Nc1cccc(Nc2nccc(Nc3cccc(C(F)(F)F)c3)n2)c1)C1CC1",
    "residual activity, %": 112
  },
  {
    "Structure": "O=C1Nc2ccc(Cl)cc2/C1=C/c1cc(Cl)c(O)c(Cl)c1",
    "residual activity, %": 48.6
  }
]

###

biological target: MKNK2 (human) (UniProt Q9HBH9); assay: radiometric filter-binding kinase assay, Kinase HotSpot; conditions: compound 0.5 µM; ATP 10 µM
Sequence (Q9HBH9 whole entry, looked up): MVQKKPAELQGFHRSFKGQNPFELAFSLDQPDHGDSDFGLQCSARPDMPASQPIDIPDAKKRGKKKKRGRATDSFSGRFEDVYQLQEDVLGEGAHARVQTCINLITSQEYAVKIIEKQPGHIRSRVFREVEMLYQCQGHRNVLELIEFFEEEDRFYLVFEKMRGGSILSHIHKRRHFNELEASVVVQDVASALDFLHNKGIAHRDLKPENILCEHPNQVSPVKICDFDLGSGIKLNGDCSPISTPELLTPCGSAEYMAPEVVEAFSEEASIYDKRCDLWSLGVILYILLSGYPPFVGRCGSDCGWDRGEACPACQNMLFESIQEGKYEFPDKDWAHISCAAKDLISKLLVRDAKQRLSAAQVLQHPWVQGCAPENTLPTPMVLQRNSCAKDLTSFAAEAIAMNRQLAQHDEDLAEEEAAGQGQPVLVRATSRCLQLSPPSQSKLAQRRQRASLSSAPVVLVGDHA
Listed here are compounds together with their documented residual activity.

[
  {
    "Structure": "CC(=O)c1ccc(N2CCOCC2)cc1O",
    "Target": "MKNK2 (human) (UniProt Q9HBH9)",
    "Readout unit": "%",
    "residual activity": 90.7
  },
  {
    "Structure": "CCN(CC)C(=O)c1ccc(Nc2nc(OCC3CCCCC3)c3nc[nH]c3n2)cc1",
    "Target": "MKNK2 (human) (UniProt Q9HBH9)",
    "Readout unit": "%",
    "residual activity": 89.3
  },
  {
    "Structure": "O=C1NC(=O)c2c1c1c3ccccc3n3c1c1c2c2ccccc2n1C1CCC3O1",
    "Target": "MKNK2 (human) (UniProt Q9HBH9)",
    "Readout unit": "%",
    "residual activity": 9.71
  },
  {
    "Structure": "Cc1ccc(NC2=CC(=O)c3sc(C)nc3C2=O)cc1",
    "Target": "MKNK2 (human) (UniProt Q9HBH9)",
    "Readout unit": "%",
    "residual activity": 89
  },
  {
    "Structure": "CNC(=O)c1cc(Oc2ccc(NC(=O)Nc3ccc(Cl)c(C(F)(F)F)c3)cc2)ccn1",
    "Target": "MKNK2 (human) (UniProt Q9HBH9)",
    "Readout unit": "%",
    "residual activity": 70.3
  },
  {
    "Structure": "CCN(CC)CCNC(=O)c1c(C)[nH]c(/C=C2\\C(=O)Nc3ccc(Cl)cc32)c1C",
    "Target": "MKNK2 (human) (UniProt Q9HBH9)",
    "Readout unit": "%",
    "residual activity": 88.8
  },
  {
    "Structure": "Nc1ccc2ncnc(NCCc3ccc(Oc4ccccc4)cc3)c2c1",
    "Target": "MKNK2 (human) (UniProt Q9HBH9)",
    "Readout unit": "%",
    "residual activity": 104
  },
  {
    "Structure": "Cc1[nH]c(/C=C2\\C(=O)Nc3ccc(S(=O)(=O)N(C)c4cccc(Cl)c4)cc32)c(C)c1C(=O)N1CCN(C)CC1",
    "Target": "MKNK2 (human) (UniProt Q9HBH9)",
    "Readout unit": "%",
    "residual activity": 106
  },
  {
    "Structure": "N#CC(C#N)=C(N)/C(C#N)=C/c1ccc(O)cc1",
    "Target": "MKNK2 (human) (UniProt Q9HBH9)",
    "Readout unit": "%",
    "residual activity": 79.1
  },
  {
    "Structure": "CCC(=O)Nc1ccc2ncnc(Nc3cccc(Br)c3)c2c1",
    "Target": "MKNK2 (human) (UniProt Q9HBH9)",
    "Readout unit": "%",
    "residual activity": 55.6
  },
  {
    "Structure": "CC(C)N(CCC(=O)c1ccc2ccccc2c1)Cc1ccccc1",
    "Target": "MKNK2 (human) (UniProt Q9HBH9)",
    "Readout unit": "%",
    "residual activity": 100
  },
  {
    "Structure": "N#C/C(=C(/N)Sc1ccc(N)cc1)c1ccccc1C(F)(F)F",
    "Target": "MKNK2 (human) (UniProt Q9HBH9)",
    "Readout unit": "%",
    "residual activity": 109
  },
  {
    "Structure": "COc1cc2ncnc(Nc3cccc(Cl)c3)c2cc1OC",
    "Target": "MKNK2 (human) (UniProt Q9HBH9)",
    "Readout unit": "%",
    "residual activity": 39.5
  },
  {
    "Structure": "COc1ccc2c(c[n+](C)c3c4cc5c(cc4ccc23)OCO5)c1OC",
    "Target": "MKNK2 (human) (UniProt Q9HBH9)",
    "Readout unit": "%",
    "residual activity": 107
  }
]

###

molecular target: UniProt O94804; experiment: radiometric filter-binding kinase assay, Kinase HotSpot; conditions: compound 0.5 µM; ATP 10 µM
Sequence (O94804 whole entry, looked up): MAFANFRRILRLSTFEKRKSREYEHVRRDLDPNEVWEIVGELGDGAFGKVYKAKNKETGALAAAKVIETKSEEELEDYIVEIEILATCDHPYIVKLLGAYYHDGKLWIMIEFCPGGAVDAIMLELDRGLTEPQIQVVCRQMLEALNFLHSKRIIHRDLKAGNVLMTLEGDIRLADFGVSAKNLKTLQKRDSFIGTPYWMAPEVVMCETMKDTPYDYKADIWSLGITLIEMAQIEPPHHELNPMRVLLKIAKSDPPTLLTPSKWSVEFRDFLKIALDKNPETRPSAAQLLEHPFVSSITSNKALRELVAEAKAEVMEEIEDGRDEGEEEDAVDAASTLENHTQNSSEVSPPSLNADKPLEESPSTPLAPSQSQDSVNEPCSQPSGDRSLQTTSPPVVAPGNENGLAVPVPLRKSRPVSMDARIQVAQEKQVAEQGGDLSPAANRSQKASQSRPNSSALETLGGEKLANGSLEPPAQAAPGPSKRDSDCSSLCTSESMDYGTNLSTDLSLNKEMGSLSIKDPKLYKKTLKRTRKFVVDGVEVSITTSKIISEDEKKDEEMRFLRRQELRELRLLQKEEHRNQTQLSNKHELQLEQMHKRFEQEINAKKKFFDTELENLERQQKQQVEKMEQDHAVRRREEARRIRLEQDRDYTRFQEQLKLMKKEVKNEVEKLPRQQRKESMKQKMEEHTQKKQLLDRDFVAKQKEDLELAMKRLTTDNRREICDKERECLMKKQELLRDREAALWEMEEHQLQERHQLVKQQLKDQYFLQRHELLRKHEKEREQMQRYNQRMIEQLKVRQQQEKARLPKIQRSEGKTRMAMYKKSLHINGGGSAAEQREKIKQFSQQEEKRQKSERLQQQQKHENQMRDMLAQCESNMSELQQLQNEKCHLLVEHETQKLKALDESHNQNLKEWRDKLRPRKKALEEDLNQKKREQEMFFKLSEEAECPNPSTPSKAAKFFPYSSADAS
Output class 1 for records whose residual activity is lower than 70%, class 0 for records at or above 70%.

[
  {
    "Structure": "CC(=O)c1ccc(N2CCOCC2)cc1O",
    "Label": "class 0"
  },
  {
    "Structure": "N#C/C(=C(/N)Sc1ccc(N)cc1)c1ccccc1C(F)(F)F",
    "Label": "class 0"
  },
  {
    "Structure": "CCN(CC)C(=O)c1ccc(Nc2nc(OCC3CCCCC3)c3nc[nH]c3n2)cc1",
    "Label": "class 1"
  },
  {
    "Structure": "O=C1NC(=O)c2c1c1c3ccccc3n3c1c1c2c2ccccc2n1C1CCC3O1",
    "Label": "class 1"
  },
  {
    "Structure": "c1ccc(-c2n[nH]cc2-c2ccnc3ccccc23)nc1",
    "Label": "class 0"
  }
]

###

biological target: MYO3B (human) (UniProt Q8WXR4); experiment: radiometric filter-binding kinase assay, Kinase HotSpot; conditions: compound 0.5 µM; ATP 10 µM
Sequence (Q8WXR4 whole entry, looked up): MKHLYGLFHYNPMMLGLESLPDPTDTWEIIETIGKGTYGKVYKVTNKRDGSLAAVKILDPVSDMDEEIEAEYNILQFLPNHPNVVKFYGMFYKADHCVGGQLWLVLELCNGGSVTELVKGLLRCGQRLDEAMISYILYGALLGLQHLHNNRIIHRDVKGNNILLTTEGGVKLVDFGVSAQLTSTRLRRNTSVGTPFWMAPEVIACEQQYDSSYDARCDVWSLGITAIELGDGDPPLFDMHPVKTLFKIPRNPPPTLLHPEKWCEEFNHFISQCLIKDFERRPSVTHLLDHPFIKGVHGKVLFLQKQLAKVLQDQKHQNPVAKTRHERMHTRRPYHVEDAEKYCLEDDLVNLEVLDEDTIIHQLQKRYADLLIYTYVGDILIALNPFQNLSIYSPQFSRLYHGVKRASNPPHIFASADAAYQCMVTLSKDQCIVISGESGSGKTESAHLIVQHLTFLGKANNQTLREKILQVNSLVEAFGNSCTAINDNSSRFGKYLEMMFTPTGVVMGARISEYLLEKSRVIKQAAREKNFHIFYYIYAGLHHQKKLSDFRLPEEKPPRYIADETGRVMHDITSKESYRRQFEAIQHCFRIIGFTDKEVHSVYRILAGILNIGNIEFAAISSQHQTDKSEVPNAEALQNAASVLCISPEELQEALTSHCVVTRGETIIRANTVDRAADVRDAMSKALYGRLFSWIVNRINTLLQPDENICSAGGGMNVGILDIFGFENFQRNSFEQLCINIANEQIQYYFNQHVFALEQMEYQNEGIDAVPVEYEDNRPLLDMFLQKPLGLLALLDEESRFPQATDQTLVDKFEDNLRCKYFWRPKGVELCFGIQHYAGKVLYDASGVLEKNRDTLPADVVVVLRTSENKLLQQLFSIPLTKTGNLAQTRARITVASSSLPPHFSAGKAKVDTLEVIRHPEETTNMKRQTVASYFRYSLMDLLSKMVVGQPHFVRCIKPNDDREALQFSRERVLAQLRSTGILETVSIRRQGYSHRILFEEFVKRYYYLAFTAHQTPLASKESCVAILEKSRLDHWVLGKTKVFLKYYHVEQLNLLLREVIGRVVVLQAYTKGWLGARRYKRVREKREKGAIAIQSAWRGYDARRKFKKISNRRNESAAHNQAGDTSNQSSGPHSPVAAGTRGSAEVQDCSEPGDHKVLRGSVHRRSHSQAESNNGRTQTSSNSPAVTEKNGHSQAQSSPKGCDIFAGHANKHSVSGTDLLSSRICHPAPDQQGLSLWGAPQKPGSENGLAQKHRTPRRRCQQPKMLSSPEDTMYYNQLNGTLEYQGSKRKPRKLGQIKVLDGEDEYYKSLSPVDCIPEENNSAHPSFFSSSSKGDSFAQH
Give class 1 when the value for residual activity is at least 80%. Give class 0 when it is less.

[
  {
    "Compound": "CCCC(=O)Oc1ccc2[nH]c(C(=O)c3cc4ccccc4[nH]3)cc2c1",
    "Target": "MYO3B (human) (UniProt Q8WXR4)",
    "Label": "class 1"
  },
  {
    "Compound": "CC(C)N(CCC(=O)c1ccc2ccccc2c1)Cc1ccccc1",
    "Target": "MYO3B (human) (UniProt Q8WXR4)",
    "Label": "class 1"
  },
  {
    "Compound": "CNc1cc2c(Nc3cccc(Br)c3)ncnc2cn1",
    "Target": "MYO3B (human) (UniProt Q8WXR4)",
    "Label": "class 1"
  },
  {
    "Compound": "Cc1[nH]c(/C=C2\\C(=O)Nc3ccc(S(=O)(=O)N(C)c4cccc(Cl)c4)cc32)c(C)c1C(=O)N1CCN(C)CC1",
    "Target": "MYO3B (human) (UniProt Q8WXR4)",
    "Label": "class 0"
  },
  {
    "Compound": "O=C1Nc2ccc(Cl)cc2/C1=C/c1cc(Cl)c(O)c(Cl)c1",
    "Target": "MYO3B (human) (UniProt Q8WXR4)",
    "Label": "class 0"
  },
  {
    "Compound": "CCC(=O)Nc1ccc2ncnc(Nc3cccc(Br)c3)c2c1",
    "Target": "MYO3B (human) (UniProt Q8WXR4)",
    "Label": "class 1"
  },
  {
    "Compound": "O=C1NC(=O)c2c1c1c3ccccc3n3c1c1c2c2ccccc2n1C1CCC3O1",
    "Target": "MYO3B (human) (UniProt Q8WXR4)",
    "Label": "class 0"
  },
  {
    "Compound": "O=C1NC(=O)C(c2cn(CCCn3ccnc3)c3ccccc23)=C1Nc1ccccc1",
    "Target": "MYO3B (human) (UniProt Q8WXR4)",
    "Label": "class 0"
  },
  {
    "Compound": "CCN(CC)CCNC(=O)c1c(C)[nH]c(/C=C2\\C(=O)Nc3ccc(Cl)cc32)c1C",
    "Target": "MYO3B (human) (UniProt Q8WXR4)",
    "Label": "class 0"
  },
  {
    "Compound": "c1ccc(-c2n[nH]cc2-c2ccnc3ccccc23)nc1",
    "Target": "MYO3B (human) (UniProt Q8WXR4)",
    "Label": "class 1"
  },
  {
    "Compound": "Nc1ncnc2c1c(-c1ccc(Oc3ccccc3)cc1)cn2C1CCCC1",
    "Target": "MYO3B (human) (UniProt Q8WXR4)",
    "Label": "class 1"
  },
  {
    "Compound": "CO[C@H]1CC2CC[C@@H](C)[C@@](O)(O2)C(=O)C(=O)N2CCCC[C@H]2C(=O)OC([C@H](C)C[C@@H]2CC[C@@H](O)[C@H](OC)C2)CC(=O)[C@H](C)/C=C(\\C)[C@@H](O)[C@@H](OC)C(=O)[C@H](C)C[C@H](C)/C=C/C=C/C=C/1C (stereo partly drawn)",
    "Target": "MYO3B (human) (UniProt Q8WXR4)",
    "Label": "class 1"
  },
  {
    "Compound": "CCOC(=O)c1c(C)[nH]c(/C=C2\\C(=O)Nc3ccccc32)c1C",
    "Target": "MYO3B (human) (UniProt Q8WXR4)",
    "Label": "class 0"
  },
  {
    "Compound": "N#CC(C#N)=C(N)/C(C#N)=C/c1ccc(O)cc1",
    "Target": "MYO3B (human) (UniProt Q8WXR4)",
    "Label": "class 1"
  },
  {
    "Compound": "Cc1ccc(Nc2nccc(N(C)c3ccc4c(C)n(C)nc4c3)n2)cc1S(N)(=O)=O",
    "Target": "MYO3B (human) (UniProt Q8WXR4)",
    "Label": "class 1"
  },
  {
    "Compound": "CCN(CC)CCNC(=O)c1c(C)[nH]c(/C=C2\\C(=O)Nc3ccc(F)cc32)c1C",
    "Target": "MYO3B (human) (UniProt Q8WXR4)",
    "Label": "class 0"
  },
  {
    "Compound": "O=C1NC(=O)/C(=C/c2ccc3c(c2)OC(F)(F)O3)S1",
    "Target": "MYO3B (human) (UniProt Q8WXR4)",
    "Label": "class 1"
  },
  {
    "Compound": "N#C/C(=C(/N)Sc1ccc(N)cc1)c1ccccc1C(F)(F)F",
    "Target": "MYO3B (human) (UniProt Q8WXR4)",
    "Label": "class 1"
  },
  {
    "Compound": "CNC(=O)c1cc(Oc2ccc(NC(=O)Nc3ccc(Cl)c(C(F)(F)F)c3)cc2)ccn1",
    "Target": "MYO3B (human) (UniProt Q8WXR4)",
    "Label": "class 1"
  },
  {
    "Compound": "Nc1ccc2ncnc(NCCc3ccc(Oc4ccccc4)cc3)c2c1",
    "Target": "MYO3B (human) (UniProt Q8WXR4)",
    "Label": "class 1"
  },
  {
    "Compound": "Nc1ncnc2[nH]nc(Nc3ccc(F)cc3)c12",
    "Target": "MYO3B (human) (UniProt Q8WXR4)",
    "Label": "class 1"
  }
]

The origin of these recorded values is the kinase profiling compilation of Christmann-Franck et al. (2016).
